Tested on: Klebsiella oxytoca
Assay: Antibacterial activity against Klebsiella oxytoca obtained from complicated skin and skin structure infections by agar dilution method
Assay type: functional

molecule | reading unit | limit sign | MIC50
CO/N=C(\C(=O)N[C@@H]1C(=O)N2C(C(=O)O)=C(CSc3nc(=O)c(O)nn3C)CS[C@H]12)c1csc(N)n1 [CEFTRIAXONE] | µg/mL | = | 0.06
O=C(O)c1cn(C2CC2)c2cc(N3CCNCC3)c(F)cc2c1=O [CIPROFLOXACIN] | µg/mL | = | 0.015
C[C@H]1COc2c(N3CCN(C)CC3)c(F)cc3c(=O)c(C(=O)O)cn1c23.C[C@H]1COc2c(N3CCN(C)CC3)c(F)cc3c(=O)c(C(=O)O)cn1c23.O [LEVOFLOXACIN] | µg/mL | ≤ | 0.06
CC(C)(O/N=C(\C(=O)N[C@@H]1C(=O)N2C(C(=O)[O-])=C(C[n+]3ccccc3)CS[C@H]12)c1csc(N)n1)C(=O)O [CEFTAZIDIME] | µg/mL | = | 0.12
C[C@@H](O)[C@H]1C(=O)N2C(C(=O)O)=C(S[C@@H]3CN[C@H](C(=O)N(C)C)C3)[C@H](C)[C@H]12 [MEROPENEM] | µg/mL | = | 0.03
Nc1nc(/C(=N/O)C(=O)N[C@@H]2C(=O)N3C(C(=O)O)=C(/C=C4\CCN([C@@H]5CCNC5)C4=O)CS[C@H]23)ns1 [CEFTOBIPROLE] | µg/mL | = | 0.06
NCC[C@H](O)C(=O)N[C@@H]1C[C@H](N)[C@@H](O[C@H]2O[C@H](CN)[C@@H](O)[C@H](O)[C@H]2O)[C@H](O)[C@H]1O[C@H]1O[C@H](CO)[C@@H](O)[C@H](N)[C@H]1O [AMIKACIN] | µg/mL | = | 2
CO/N=C(\C(=O)N[C@@H]1C(=O)N2C(C(=O)[O-])=C(C[N+]3(C)CCCC3)CS[C@H]12)c1csc(N)n1 | µg/mL | = | 0.06
